Please go through the items and note down their self-cleavage.
B1: HDV Ribozyme (parent)
chain: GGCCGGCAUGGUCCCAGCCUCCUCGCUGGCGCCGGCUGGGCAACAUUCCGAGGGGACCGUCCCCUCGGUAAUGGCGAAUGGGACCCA

- Variants of: B1
- Procedure summary: self-cleavage, relative activity (ratio to wild type); higher = more cleavage; co-transcriptional
Provide a numeric answer; units are not to be included.

Find the recorded self-cleavage belonging to U12A C26A and report it.
0.745

If you can, please state the reported self-cleavage value of G25C U65G .
0.0875

# lookup: self-cleavage of G29C A83U
0.0462

Any idea what its self-cleavage is? The variant is C48A C61A
1.02

# query: self-cleavage of entry G11C C26U
0.895

I would be grateful if you could share the reported self-cleavage for G5C G53C .
0.237

Look up self-cleavage for this variant: C24G
0.13

Which self-cleavage reading was recorded for the variant U47G C57U ?
0.985

Which self-cleavage value belongs to C41A G53C ?
0.848

Given C57U A87C , state its recorded self-cleavage.
1.17

# query: self-cleavage of entry C48G G74C
0.0755

Could you tell me which self-cleavage is on file for C7U C13U ?
0.332

Any idea what its self-cleavage is? The variant is C32G U79G
0.172

For G17A G67A , what is its reported self-cleavage?
0.501

If you can, please state the reported self-cleavage value of C62U A87G .
1.05

Suppose we examine the variant C21A G53A ; what self-cleavage value has been reported?
0.0791

Record request: self-cleavage value, item G35U G82A
0.0841

Find the recorded self-cleavage belonging to G28C C58A and report it.
0.166

Entry U69G U79C has what self-cleavage?
0.326

Fill in the blank: the reported self-cleavage of C62A G81U is ____.
0.266

For C3U C75A , what is its reported self-cleavage?
0.101

Param item = G28U C57G ; retrieve measured self-cleavage.
0.0773
